Field: CPE inhibition. Provide a value for each of the molecules that follow.
methodDescription: West Nile virus antiviral activity, cell-based, CPE readout (AID 1621)
studyConditions: West Nile virus-infected cells, at 10 µM, hits give high values
The campaign covered roughly 290,000 compounds. About 60 (0.02%) were called active. Not shown: some 1% with an inconclusive outcome. These entries were drawn from the full list. Potency and affinity values are given separately.
Numbers only, in %.

Here's what some known entries look like.
- inputSmiles: "CN(C)CCCN1c2ccccc2CCc2ccccc21"
  resultUnit: "%"
  CPE inhibition: -0.69
- inputSmiles: "COc1cc(-c2nc(C(=O)NC3CCCCC3)cc3c2[nH]c2ccccc23)cc(OC)c1OC"
  resultUnit: "%"
  CPE inhibition: 1.01
- inputSmiles: "CC1CCN(CCCNC(=O)c2cc3c(Cl)nc4ccccc4c3s2)CC1"
  resultUnit: "%"
  CPE inhibition: 3.15

For each entry beneath this line, provide reported CPE inhibition.
1. Cc1ccc(S(=O)(=O)c2nc(-c3cccs3)oc2SCC(N)=O)cc1
2. O=C(CC(=O)Nc1ccccc1C(=O)O)NNC(=O)Cc1ccccc1
3. COC(=O)c1ccccc1NC(=S)N(Cc1ccc2c(c1)OCO2)Cc1cc2cc(C)ccc2[nH]c1=O
4. Cc1nc2nc(CCc3ccccc3)nn2c(C)c1Cl
5. CCOC(=O)C1(Cc2ccccc2C(F)(F)F)CCN(C2CCCC2)CC1

Result:
[2.11, -0.29, 0.29, 0.45, -0.59]

Data origin, for the record: PubChem BioAssay AID1621
